The reported measurements were obtained from PubChem BioAssay (NCI).

- Tested on: MOLT-4 leukemia
- assayName: NCI-60 one-dose screen, 48 h (100 = growth as untreated, 0 = no growth, -100 = all killed)
- conditionParameters: 10 µM unless noted
- Protocol: Growth inhibition of the MOLT-4 human tumor cell line is measured as a screen for anti-cancer activity. Cells are grown in 96 well plates and exposed to the test compound for 48 hours. Compounds are tested at a single concentration, which is 10^-5 M for most compounds. The reported endpoint is percent growth (GI% or GIPRCNT), where numbers from 0 - 100% represent growth inhibition, and numbers from -100% - 0 represent cell death. For example, a value of 40 represents 60% growth inhibition. […]
Compounds without any hit were thinned out: in the full panel of roughly 83,000, 20% have a hit. Active and inactive are the calls of the source. The calls were made as follows: active = growth percent below 10; inactive = the rest.
Examples of compounds with documented growth follow.
measuredAttribute: growth

{"columns": ["compound", "assaySystem", "measuredAttribute", "reportedResult"],
 "data": [
  ["CC(=O)N1N=C(c2cccc(Nc3ccncc3)c2)CC1c1ccccc1 (stereo unspecified)", "MOLT-4 leukemia", "growth", "81.4% (inactive)"],
  ["COc1ccc(C(=O)c2cc(C)c(OC)c(C)c2)c(OC)c1N(C(=O)C(Cl)Cl)C(=O)C(Cl)Cl", "MOLT-4 leukemia", "growth", "22.6% (inactive)"],
  ["N#Cc1ccc(-c2ccc3c(c2)NC(=O)/C3=C\\c2ccc[nH]2)cc1", "MOLT-4 leukemia", "growth", "109% (inactive)"],
  ["CC1(C)CN(Cc2ccccc2)CCN1Cc1ccccc1", "MOLT-4 leukemia", "growth", "100% (inactive)"],
  ["COc1ccc(C(O)c2cc3c(N)c(C(=O)Nc4ccc(Br)cc4)sc3nc2C)cc1 (stereo unspecified)", "MOLT-4 leukemia", "growth", "17.5% (inactive)"],
  ["Cc1ccc(C2CC(c3cccc(Nc4ccncc4)c3)=NN2c2ccc(Cl)cc2)cc1 (stereo unspecified)", "MOLT-4 leukemia", "growth", "-32.8% (active)"],
  ["CCCCCCCCCCCCCCCC(=O)OC[C@@]1(O)C[C@@]23CC[C@@H]4C(C)(C)[C@H](O)CC[C@@]4(C)[C@@H]2CC[C@H]1C3", "MOLT-4 leukemia", "growth", "101% (inactive)"],
  ["N/C(=N\\N=C\\c1cc2ccccc2[nH]1)N/N=C/c1cc2ccccc2[nH]1", "MOLT-4 leukemia", "growth", "84.6% (inactive)"],
  ["Cc1cc(C(=O)Nc2ncnc3nc[nH]c23)no1", "MOLT-4 leukemia", "growth", "91.7% (inactive)"],
  ["N#Cc1c(NC(=O)c2cccc(Br)c2)sc2c1CCCC2", "MOLT-4 leukemia", "growth", "52.3% (inactive)"],
  ["Clc1nc(Cl)c2ncn(CCOCCn3cnc4c(Cl)nc(Cl)nc43)c2n1", "MOLT-4 leukemia", "growth", "-68.9% (active)"],
  ["CCc1c(Nc2ccc(C)cc2)nc(N)[nH]c1=O", "MOLT-4 leukemia", "growth", "101% (inactive)"],
  ["CC1=NNC(=O)C1CCC(=O)N/N=C(\\C)c1ccc2ccccc2c1 (stereo unspecified)", "MOLT-4 leukemia", "growth", "88.9% (inactive)"],
  ["CC1(C)CN(c2cnc(C(=O)Nc3cc(F)cc4cccnc34)cn2)CCN1", "MOLT-4 leukemia", "growth", "38.5% (inactive)"],
  ["COc1cc(-c2cc(=O)oc3cc(O)ccc23)c(OC)c2c1OCO2", "MOLT-4 leukemia", "growth", "100% (inactive)"],
  ["CCN(CC)S(=O)(=O)c1cccc([N+](=O)[O-])c1", "MOLT-4 leukemia", "growth", "105% (inactive)"],
  ["O=C(Nc1nc2ccc(S(=O)(=O)Nc3ccc(C4(C(F)(F)F)CC4)cc3)cc2[nH]1)c1cnccn1", "MOLT-4 leukemia", "growth", "38.7% (inactive)"],
  ["O=C(/C=C\\c1ccc(OCCCCCC[P+](c2ccccc2)(c2ccccc2)c2ccccc2)cc1)c1ccc2c(c1)OCCO2", "MOLT-4 leukemia", "growth", "-20.6% (active)"],
  ["COc1ccc2c(/C=C3/C(=O)NC(=S)NC3C)cc(=O)oc2c1 (stereo unspecified)", "MOLT-4 leukemia", "growth", "90.5% (inactive)"],
  ["Clc1cc(Cl)cc(N2N=C(c3cccc(Nc4ccncc4)c3)CC2c2ccc3c(c2)OCO3)c1 (stereo unspecified)", "MOLT-4 leukemia", "growth", "-0.295% (active)"],
  ["FCc1nc2nc(Cl)c(Cl)nc2[nH]1", "MOLT-4 leukemia", "growth", "97.8% (inactive)"]
]}

###

- System: NCI/ADR-RES ovarian
- assayName: NCI-60 one-dose screen, 48 h
- conditionParameters: 10 µM unless noted
About 83,000 compounds went through this panel and 20% of them were active in at least one assay; those are over-represented in the sample as a whole. The source made the active and inactive calls. The calls were made as follows: active = growth percent below 10; inactive = the rest.
Outcome codes: class 1 for active, class 0 for inactive

{"columns": ["molecule", "cat"],
 "data": [
  ["COc1ccccc1/C=N/NC1=NC2C(N1)N(C)C(=O)N2C (configuration not stated)", "class 0"],
  ["C=C1C(=O)O[C@H]2[C@H]1CC/C(COC(=O)CCCc1c[nH]c3ccccc13)=C\\CC[C@@]1(C)O[C@@H]21", "class 0"],
  ["O=C1c2cccnc2C(=O)c2nc3cc(N4CCN(C5CC5)CC4)ccc3nc21", "class 0"],
  ["COc1cccc(-c2nc3occn3c2-c2ccnc(NCCCNS(=O)(=O)c3cccc(F)c3)n2)c1", "class 0"],
  ["COc1cc(NCCN(CC(C)C)C2CCCC2)c2ncccc2c1", "class 0"],
  ["CCOC(=O)c1ccc(Nc2ccnc(SCC(=O)c3ccc(C#N)cc3)n2)cc1", "class 0"],
  ["OC(c1ccccc1)c1ccccn1 (configuration not stated)", "class 0"],
  ["CN1CCN(c2c(F)cc(NC3=C(Cl)C(=O)c4ncccc4C3=O)cc2F)CC1", "class 0"],
  ["COc1cccc(NC(=O)c2cccc(-c3cc(=O)c4c(OC)c(OC)c(OC)cc4o3)c2)c1", "class 0"],
  ["COc1ccc(C(=O)c2cc3c(N)c(C(=O)Nc4ccc(Br)cc4)sc3nc2C)cc1", "class 0"],
  ["COc1ccccc1/C=C1\\Oc2cc(OCCCN3CCCC3)ccc2C1=O", "class 0"],
  ["COc1ccc(-c2ncc(-c3ccccc3)[nH]2)cc1OC", "class 0"],
  ["CC(O)(CO)c1ccccc1 (configuration not stated)", "class 0"],
  ["COc1cc(CNC(=O)CCCCC[P+](c2ccccc2)(c2ccccc2)c2ccccc2)c(OC)c2c1OCO2", "class 0"],
  ["CCCc1cc2c(cc1Br)OCO2", "class 0"],
  ["COC(=O)C1=C(C(=O)ONCCN(C)C)C2C=CC1(C(Cc1ccccc1)Nc1ccc(F)cc1)O2 (configuration not stated)", "class 0"],
  ["Brc1ccc(C2CC(c3cccc(Nc4ccncc4)c3)=NN2c2ccccc2)cc1 (configuration not stated)", "class 0"],
  ["C#Cc1cccc(NC(=O)Nc2cccc(N=C=S)c2)c1", "class 0"],
  ["CC(=O)N1c2ccccc2NC2=C(C(=O)N(C)C2(C)C)C1C (configuration not stated)", "class 0"],
  ["CCOC(=O)c1c(C)nc2c(c1N)C(=O)C(=O)N2Cc1ccc(C(F)(F)F)cc1", "class 0"],
  ["Cn1c(COC(=O)N2CCCCC2)nc2c(N3CCOCC3)nc(-c3ccccc3)nc21", "class 1"],
  ["CN1CCN(c2ccc3nc(-c4cc(C(C)(C)C)c(O)c(C(C)(C)C)c4)[nH]c3c2)CC1", "class 0"]
]}

###

- System: DU-145 prostate
- assayName: NCI-60 one-dose screen, 48 h (100 = growth as untreated, 0 = no growth, -100 = all killed)
- conditionParameters: 10 µM unless noted
Compounds without any hit were thinned out: in the full panel of roughly 83,000, 20% have a hit.

{"columns": ["compound", "assaySystem", "growth (%)"],
 "data": [
  ["C1=C2CNCC3=Cc4ccc5ccccc5c4OC23Oc2c1ccc1ccccc21", "DU-145 prostate", 65.3],
  ["CC(C)Cc1ccc(C(C)C(=O)NCc2c[nH]c3ccc(Cl)cc23)cc1 (stereo not given)", "DU-145 prostate", 103],
  ["COc1ccc(-c2nn(Cc3ccccc3)c3c2-c2oncc2CC3)cc1OC", "DU-145 prostate", 97.4],
  ["CCCCCCCCCCCCCCCC(=O)OC[C@@]1(O)C[C@@]23CC[C@@H]4C(C)(C)CCC[C@@]4(C)[C@@H]2CC[C@H]1C3", "DU-145 prostate", 108],
  ["CC(C)(C)OC(=O)N1C/C(=C\\c2ccoc2)C(=O)/C(=C/c2ccoc2)C1", "DU-145 prostate", 109],
  ["COc1cc2c(cc1[N+](=O)[O-])-c1ccc([N+](=O)[O-])cc1/C2=N\\O", "DU-145 prostate", 120],
  ["CC[N+](CC)(CCCC(C)[N+]1(Cc2ccccc2)C(C)=CC=C1C)Cc1ccccc1 (stereo not given)", "DU-145 prostate", 101],
  ["COc1ccc(Cn2nc(-c3ccccc3)c3c2CCc2cnoc2-3)cc1", "DU-145 prostate", 96.9],
  ["COc1cccc(/C=C2\\COc3ccc(-c4ccccc4)cc3C2=O)c1", "DU-145 prostate", -40.2],
  ["O=S(=O)(O)c1cc(O)c2c(N=Nc3ccc(Nc4ccccc4)c4c(S(=O)(=O)O)cccc34)cc(S(=O)(=O)O)cc2c1", "DU-145 prostate", 107],
  ["ClCC1(Cn2cnc3c(Cl)nc(Cl)nc32)COC1", "DU-145 prostate", 67.8],
  ["O=c1[nH]c(=O)[nH]c(=S)[nH]1", "DU-145 prostate", 105],
  ["O=C(c1ccccc1)N1N=C(c2ccc(-n3ccc(C(F)(F)F)n3)cc2)CC1c1ccc[nH]1 (stereo not given)", "DU-145 prostate", 104],
  ["COc1cc2nc(-c3ccc(C(F)(F)F)cc3)cc(OCCN3CCCC3)c2cc1OC", "DU-145 prostate", 84.1],
  ["CCOC(=O)c1ccc(Nc2ccnc(SCC(=O)c3ccc(C#N)cc3)n2)cc1", "DU-145 prostate", 79.4],
  ["CC(=O)Nc1ccc(S(=O)(=O)NC2CCCCC2)cc1", "DU-145 prostate", 113],
  ["Cn1ncc2c(Nc3ccccc3Cl)nc(Cl)nc21", "DU-145 prostate", 139],
  ["COc1ccc(CNCCN2C(=O)c3ccc4c5c(ccc(c35)C2=O)C(=O)N(CCNCc2ccc(OC)cc2)C4=O)cc1", "DU-145 prostate", -90.6],
  ["CCCCCOc1ccc(/C=N/Nc2cc(C)nc3ccc(Br)cc23)cc1", "DU-145 prostate", 0.579],
  ["O=C(Nc1sc2c(c1C(=O)O)CCCC2)c1cccc(C(F)(F)F)c1", "DU-145 prostate", 94.2]
]}
